# TARGET_UNDER_TEST: T1, cyno TREM-1 on cells (cynomolgus monkey, UniProt A0A2K5VHG8 21-233)
# T1 sequence: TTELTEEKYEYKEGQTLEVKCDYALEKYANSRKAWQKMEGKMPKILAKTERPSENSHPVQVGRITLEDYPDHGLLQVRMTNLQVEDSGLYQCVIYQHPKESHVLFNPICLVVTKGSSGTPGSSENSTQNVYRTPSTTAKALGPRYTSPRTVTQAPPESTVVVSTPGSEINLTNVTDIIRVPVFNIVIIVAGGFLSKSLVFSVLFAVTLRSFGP
# ASSAY_PROTOCOL: cell-based or functional assay
Below, each entry is listed with its recorded Ab IC50-Cyno PBMC (Trial 2), TNFα release after cyno PGLYRP1/PGN.
Return type: number; implicit unit nM.

Form field Ab IC50-Cyno PBMC (Trial 2), TNFα release after cyno PGLYRP1/PGN, entry 61B12 (antibody, V domains shown) VH: QVQLVQSGAEVTKPGASVKVSCKASGYTFTRYDINWVRQATGQGLEWMGWMNPNSGNSGSVQKFRGRVTMTRNTSITTVYMELSSLRSDDTAVYYCARGGISSSWHWAFDIWGQGTMVTVSS VL: DIQMTQSPSSLSASVGDRVTITCQASQDINNHLNWYQQKPGKAPKLLIYGAYTLETGVPSRFSGSGSGTDFTFTISSLQPEDIATYYCQQYDKLPLTFGGGTKVEIKR : 0.0174

--- query ---
Form field Ab IC50-Cyno PBMC (Trial 2), TNFα release after cyno PGLYRP1/PGN, entry 46H7 (antibody, V domains shown) VH: EVQLLESGGGMVQPGGSLRLSCAVSGFTFSRYAMSWVRQAPGKGLEWVSEMRGSSGSTYYADSVKGRFTISRDNSKNTLYLQMNSLRVEDTAIYYCAKEFSSNSLFDYWGQGTLVTVSS VL: EIVMTQSPATLSVSPGERATLSCRASQSVNSNLAWYQQKPGRAPRLLIYGASTRATGIPARFSGSGSGTEFTLTISSLQSEDFAVYYCQQFYNWPPWTFGQGTKVEIKR : 0.0097
